# MEASURED_ON: HLA-B*5301 (human)
# PROTOCOL_DESCRIPTION: competition vs 125I probe, purified HLA
# CONDITION: remark: other sources report otherwise
QUANTITY_MEASURED: pIC50
Give only the number. pIC50 is defined as minus log10 of concentration in molar units.

Inquiry: Recorded pIC50 for KPYDGIPI [Her2/neu.921I8] , please?
Reply text: 7.29
